protocol: Fluorescence excitation/emission maxima and relative response per gram (luminescence spectrometer)
Assay type: physicochemical
Decide using Excitation Max: a value greater than or equal to 300 nm is 1, a smaller one is 0.

compound	class
COC(=O)C1CC(=O)N(CCNC(=O)C2CC(=O)N(CCNC(=O)C3CC(=O)N(CCSSCCN4CC(C(=O)NCCN5CC(C(=O)NCCN6CC(C(=O)OC)CC6=O)CC5=O)CC4=O)C3)C2)C1 (centres unmarked)	0
O=C1CCC(C(=O)O)N1 (centres unmarked) [2-Pyrrolidone-5-carboxylic acid, reference compound]	0
c1ccc(C2=NCCN2)cc1 [2-Phenyl-2-imidazoline, reference compound]	1
COC(=O)C1CC(=O)N(CCNC(=O)C2CC(=O)N(CCSSCCN3CC(C(=O)NCCN4CC(C(=O)OC)CC4=O)CC3=O)C2)C1 (centres unmarked)	1
O=C([O-])c1ccccc1-c1c2ccc(=O)cc-2oc2cc([O-])ccc12.[Na+].[Na+] [Fluorescein-Na, reference compound]	1
COC(=O)C1CC(=O)N(CCNC(=O)C2CC(=O)N(CCNC(=O)C3CC(=O)N(CCN4CC(C(=O)NCCN5CC(C(=O)NCCN6CC(C(=O)OC)CC6=O)CC5=O)CC4=O)C3)C2)C1 (centres unmarked)	1
NCCNC(=O)C1CC(=O)N(CCNC(=O)C2CC(=O)N(CCNC(=O)C3CC(=O)N(CCN4CC(C(=O)NCCN5CC(C(=O)NCCN6CC(C(=O)NCCN)CC6=O)CC5=O)CC4=O)C3)C2)C1 (centres unmarked)	1
COC(=O)C1CC(=O)N(CCN2CC(C(=O)OC)CC2=O)C1 (centres unmarked)	1
COC(=O)C1CC(=O)N(CCNC(=O)C2CC(=O)N(CCNC(=O)C3CC(=O)N(CCNC(=O)C4CC(=O)N(CCN5CC(C(=O)NCCN6CC(C(=O)NCCN7CC(C(=O)NCCN8CC(C(=O)OC)CC8=O)CC7=O)CC6=O)CC5=O)C4)C3)C2)C1 (centres unmarked)	1

###

protocol: Fluorescence excitation/emission maxima and relative response per gram (luminescence spectrometer)
Format: physicochemical
Listed here: items and their measured Emission Max.

compound	Emission Max (nm)
COC(=O)C1CC(=O)N(CCNC(=O)C2CC(=O)N(CCNC(=O)C3CC(=O)N(CCNC(=O)C4CC(=O)N(CCN5CC(C(=O)NCCN6CC(C(=O)NCCN7CC(C(=O)NCCN8CC(C(=O)OC)CC8=O)CC7=O)CC6=O)CC5=O)C4)C3)C2)C1 (stereo not shown) [Compound 44]	450
COC(=O)C1CC(=O)N(CCNC(=O)C2CC(=O)N(CCNC(=O)C3CC(=O)N(CCSSCCN4CC(C(=O)NCCN5CC(C(=O)NCCN6CC(C(=O)OC)CC6=O)CC5=O)CC4=O)C3)C2)C1 (stereo not shown) [Compound 35]	301
COC(=O)C1CC(=O)N(CCNC(=O)C2CC(=O)N(CCSSCCN3CC(C(=O)NCCN4CC(C(=O)OC)CC4=O)CC3=O)C2)C1 (stereo not shown) [Compound 33]	380
NCCNC(=O)C1CC(=O)N(CCNC(=O)C2CC(=O)N(CCNC(=O)C3CC(=O)N(CCN4CC(C(=O)NCCN5CC(C(=O)NCCN6CC(C(=O)NCCN)CC6=O)CC5=O)CC4=O)C3)C2)C1 (stereo not shown) [Compound 43]	440

###

Listed here: items and their measured Emission Max.
protocol: Fluorescence excitation/emission maxima and relative response per gram (luminescence spectrometer)
Format: physicochemical
assay_readout: Emission Max (nm)

compound	recorded_measurement
O=C([O-])c1ccccc1-c1c2ccc(=O)cc-2oc2cc([O-])ccc12.[Na+].[Na+] [Fluorescein-Na, reference compound]	510
COC(=O)C1CC(=O)N(CCNC(=O)C2CC(=O)N(CCN3CC(C(=O)NCCN4CC(C(=O)OC)CC4=O)CC3=O)C2)C1 (stereo not shown)	390
COC(=O)C1CC(=O)N(CCNC(=O)C2CC(=O)N(CCNC(=O)C3CC(=O)N(CCN4CC(C(=O)NCCN5CC(C(=O)NCCN6CC(C(=O)OC)CC6=O)CC5=O)CC4=O)C3)C2)C1 (stereo not shown)	405
O=C1CCC(C(=O)O)N1 (stereo not shown) [2-Pyrrolidone-5-carboxylic acid, reference compound]	385
c1ccc(C2=NCCN2)cc1 [2-Phenyl-2-imidazoline, reference compound]	400
COC(=O)C1CC(=O)N(CCSSCCN2CC(C(=O)OC)CC2=O)C1 (stereo not shown)	350
COC(=O)C1CC(=O)N(CCN2CC(C(=O)OC)CC2=O)C1 (stereo not shown)	410

# credit: patent US10968176B2
